TEST_SYSTEM: human glucagon receptor (hGCGR) (human, UniProt P47871 26-477)
Sequence (P47871 26-477): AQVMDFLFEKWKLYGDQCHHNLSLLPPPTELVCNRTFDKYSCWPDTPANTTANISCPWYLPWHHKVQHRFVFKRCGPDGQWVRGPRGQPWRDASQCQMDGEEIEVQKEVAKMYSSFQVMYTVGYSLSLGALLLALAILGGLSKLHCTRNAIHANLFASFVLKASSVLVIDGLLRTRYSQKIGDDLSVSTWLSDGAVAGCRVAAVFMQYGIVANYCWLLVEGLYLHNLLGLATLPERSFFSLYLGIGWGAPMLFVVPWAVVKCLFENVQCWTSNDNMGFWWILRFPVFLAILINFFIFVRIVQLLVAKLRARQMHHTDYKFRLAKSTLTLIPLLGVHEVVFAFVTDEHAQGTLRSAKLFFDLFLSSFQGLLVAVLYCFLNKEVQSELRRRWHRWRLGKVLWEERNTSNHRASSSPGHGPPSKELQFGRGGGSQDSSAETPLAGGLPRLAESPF
METHOD_DESCRIPTION: cell-based or functional assay
Starred links: 1 amine or outer side, 2 acyl side, 3 side chain; linkers in the order of their positions; H or OH if unused. Non-standard residues stand in square brackets, D forms with d. Groups on a side chain read outwards from the residue. No end group written: not given here. *: point of attachment. C20 diacid = O=C(O)CCCCCCCCCCCCCCCCCCC(=O)*; C18 diacid = O=C(O)CCCCCCCCCCCCCCCCC(=O)*; γGlu = O=C(O)[C@H](CCC(=O)[*:2])N[*:1]; αMeF = C[C@](N)(Cc1ccccc1)C(=O)O; AEEA = NCCOCCOCC(=O)O; Aib = CC(C)(N)C(=O)O
MEASUREMENT_KIND: hGluc-R EC50 (pM)

binder="H[Aib]QGTFTSDVSK[αMeF]LDTK([AEEA-AEEA-γGlu-C18 diacid])RAQDFVQWLL[Aib]E-OH [Peptide 483]" reported_value=169
binder="H[Aib]QGTFTSDVSK[αMeF]LETK([AEEA-AEEA-γGlu-C18 diacid])RARDFVQWLLE[Aib]G-OH [Peptide 445]" reported_value=684
binder="H[Aib]QGTFTSDVSK[αMeF]LDKK([AEEA-AEEA-γGlu-C18 diacid])RAQDFVRWLLA (not fully specified (C-terminus)) [Peptide 459]" reported_value=36.9
binder="H[Aib]QGTFTSDVSK[αMeF]LDTK([AEEA-AEEA-γGlu-C18 diacid])RARDFVQWLLE[Aib]G (not fully specified (C-terminus)) [Peptide 427]" reported_value=47.2
binder="H[Aib]QGTFTSDVSK[αMeF]LDTK([AEEA-AEEA-γGlu-C20 diacid])RARDFVAWLLE[Aib]G-NH2 [Peptide 507]" reported_value=86.6
binder="H[Aib]QGTFTSDVSK[αMeF]LDKK([AEEA-AEEA-γGlu-C20 diacid])RAQDFVRWLLE[Aib]G-NH2 [Peptide 453]" reported_value=162
binder="H[Aib]QGTFTSDVSK[αMeF]LDTK([AEEA-AEEA-γGlu-C20 diacid])RAQDFVRWLLR[Aib]K-OH [Peptide 494]" reported_value=212
binder="H[Aib]QGTFTSDVSK[αMeF]LDTK([AEEA-AEEA-γGlu-γGlu-C20 diacid])RAQDFVAWLEAGG-OH [Peptide 413]" reported_value=1020
binder="H[Aib]QGTFTSDVSK[αMeF]LDSK([γGlu-γGlu-AEEA-AEEA-γGlu-γGlu-C20 diacid])RAQDFVRWLLE[Aib]G-OH [Peptide 139]" reported_value=984
